Experiment: HUVEC growth inhibition – cell-based, human, primary screen (AID 575);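 further: 100% = median of untreated cell wells with 0.1% DMSO on each plate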
Settings: HUVEC proliferation, CellTiter-Glo luminescence, 72 h; at 10 µM; stronger effect = lower value
What viability was measured for each of the following?
Quick reminder: number only, in %, skip the unit.

// sample Cn1c(C(=O)NCC2CCCO2)cc2c(=O)[nH]c3ccccc3c21 (configuration not stated) , its viability was 108

// sample `CCOc1ccc(Oc2nc(Nc3ccc(C)cc3)nc(N(C)C)n2)nn1` , its viability was 89.3

// sample `O=C(c1cccc(Cl)c1)N1CCN(Cc2ccncc2)CC1` , its viability was 96.2

// sample `COc1ccccc1NC(=O)NC1(C(=O)N2CCC(O)CC2)CCCCC1` , its viability was 99.2

// sample `COc1ccccc1OCCn1c(=O)sc2ccccc21` , its viability was 89.6

// sample `COC(=O)CNC(=O)c1c(C)cc(=O)oc1C` , its viability was 90.3

// sample CCOC(=O)c1ccc2nc(C)c3c(c2c1)OC(C)C3 (configuration not stated) , its viability was 97.1

// sample CCN1C(=O)CC(C(=O)Nc2ccc(F)cc2)SC1=Nc1ccc2c(c1)OCO2 (configuration not stated) , its viability was 79.7

// sample `Cc1ccc2c(CNCc3ccco3)cc(=O)oc2c1` , its viability was 84.1

// sample `COC(=O)c1cc(OC)c(OCc2cc(C(=O)OC)oc2C)c(OC)c1` , its viability was 107

// sample `Cc1cccc(N(CC(N)=O)S(C)(=O)=O)c1C` , its viability was 107

// sample `CCOC(=O)c1oc2ccccc2c1NC(=O)COC` , its viability was 99.5

// sample COc1ccccc1CN1CC(C(=O)N2CCN(c3ccc(F)cc3)CC2)CC1=O (configuration not stated) , its viability was 98

// sample `CCCn1c(N)c(C(=O)CSc2nnc(Cc3ccccc3)o2)c(=O)n(C)c1=O` , its viability was 75.2

// sample `C[C@@H]1C[C@H](O)c2cc(Cl)ccc2N1` , its viability was 86.1

// sample Cc1c(/C(O)=C2/C(=O)C(=O)N(CCN3CCOCC3)C2c2cccnc2)cnn1-c1ccccc1 (configuration not stated) , its viability was 110

// sample `c1ccc(Cc2nnc3n2CCCCC3)cc1` , its viability was 93.9

// sample COc1ccc(Cn2nnnc2C(c2ccccc2OC)N2CCC(C(N)=O)CC2)cc1 (configuration not stated) , its viability was 105

// sample `Cc1nc(/N=C(\N)Nc2ccccc2)nc2ccccc12` , its viability was 74.5

// sample `O=C1CN=C(Nc2cccc(C(F)(F)F)c2)N1C1CCCC1` , its viability was 101

// sample `CSc1ccc(S(=O)(=O)Nc2cccc(F)c2)cc1` , its viability was 97.7

// sample `CN(Cc1ccco1)C(=O)Cn1c(=O)oc2cc(S(=O)(=O)NCc3ccccc3)ccc21` , its viability was 96.4

// sample `Cc1cc(C)nc(NC(=O)c2ccc(OC(C)C)cc2)n1` , its viability was 95.8

// sample `Cc1ccccc1CS(=O)(=O)Cc1ccc(C(=O)NCCCN2CCOCC2)o1` , its viability was 104

// sample `O=C(OCC(=O)c1c[nH]c2ccccc12)C1=COCCO1` , its viability was 100

// sample `CCn1c(=S)sc2nc(C)sc21` , its viability was 96.6

// sample `COC(=O)CSc1nc2ncc(Cl)cc2[nH]1` , its viability was 89.3

// sample CCCOc1cccc(C2/C(=C(/O)c3ccccc3)C(=O)C(=O)N2CCN(C)C)c1 (configuration not stated) , its viability was 99.5

// sample O=C(COc1ccc(S(=O)(=O)NC2CCCCC2)cc1Cl)NCC1CCCO1 (configuration not stated) , its viability was 98.6

// sample `Cc1ccc(Nc2cc(C)nc3ncnn23)c(Cl)c1` , its viability was 87

// sample `C=CCn1c(Cc2cccs2)nnc1SCC(=O)Nc1ccc(OC)c(OC)c1` , its viability was 89.6

// sample `CC(=O)c1c(NCCc2ccccc2)cc(C)oc1=O` , its viability was 119

// sample CC(O)c1n(C)c(Cl)c[n+]1C (configuration not stated) , its viability was 109

// sample `O=C(CCC(=O)N1CCc2ccccc2C1)N1CCN(S(=O)(=O)c2ccccc2)CC1` , its viability was 84.4

// sample `Cc1cc(C)c(-c2cc(C(=O)Nc3c(C)n(C)n(-c4ccccc4)c3=O)[nH]n2)c(O)c1` , its viability was 97.5

// sample `C=CCNC(=O)CSc1ccc(Cl)cc1` , its viability was 109

// sample `O=S(=O)(c1cccc(-c2nnco2)c1)N1CCCC1` , its viability was 114

// sample `CCc1nnc(NC(=O)CSc2nnc(CSc3nc(C)cc(C)n3)n2CC)s1` , its viability was 84.1

// sample `CCOC(=O)N1CCN(c2nc(-c3ccc(Cl)cc3)cs2)CC1` , its viability was 98.3

// sample `O=C(Nc1ccc(OC(=O)c2ccco2)cc1)c1ccco1` , its viability was 103

// sample `COc1ccc(CNC(=O)c2cc(-c3ccc(OC)c(OC)c3)on2)cc1` , its viability was 118

// sample COc1ccc2[nH]c(=O)c(CN(CC3CCCO3)C(=O)Nc3ccc(F)cc3)cc2c1 (configuration not stated) , its viability was 26.1

// sample `COc1ccc(OC)c(S(=O)(=O)Nc2ccc(C(N)=O)cc2)c1` , its viability was 110

// sample `CN(Cc1cccs1)C(=O)CCc1ccc(S(=O)(=O)N2CCOCC2)cc1` , its viability was 111

// sample `Cc1cc(SCC(N)=O)nc(SCC(=O)c2ccccc2)n1` , its viability was 106

// sample COc1ccc(C(CNC(=O)CN2C(=O)NC3(CC(C)CC(C)(C)C3)C2=O)N2CCOCC2)cc1 (configuration not stated) , its viability was 90.4

// sample `COCCn1c(SCC(=O)Nc2nnc(C)s2)nnc1-c1ccncc1` , its viability was 101
